Biological target: IRF5
Details: ASO, A-431, 0.00412 µM
After the bases stand the sugars from the 5' end (letter, count) and the backbone: PS all phosphorothioate, else s phosphorothioate and o phosphodiester by linkage. Methylation of C is not given here. [mop] = methoxypropylphosphonate linkage; k = constrained ethyl (cEt); d = 2'-deoxy (DNA)
# target mRNA inhibition listing for each entry below

{"columns": ["Sequence Input", "target mRNA inhibition"],
 "data": [
  ["TCTGATATGATACCTA (sugars k3 d2 k1 d7 k3, PS)", "4%"],
  ["CTGATATGATACCTAA (sugars k3 d10 k3, linkages s5 [mop]1 s9)", "0%"],
  ["CTGATATGATACCTAA (sugars k3 d10 k3, PS)", "13%"],
  ["CTGATATGATACCTAA (sugars k3 d2 k1 d7 k3, PS)", "18%"]
]}

* * *

Target: DGAT2
Conditions: ASO, HepG2, 0.12 µM
After the bases stand the sugars from the 5' end (letter, count) and the backbone: PS all phosphorothioate, else s phosphorothioate and o phosphodiester by linkage. Methylation of C is not given here. e = 2'-O-(2-methoxyethyl) (MOE); d = 2'-deoxy (DNA)
Quantity Kind: target mRNA inhibition (%)

{"columns": ["Sequence Input", "Numeric Value"],
 "data": [
  ["TCCCATTCTTTGAAAGCAAA (sugars e5 d10 e5, PS)", 31],
  ["CTGACCTCAGGGTGATCAAG (sugars e5 d10 e5, PS)", 31],
  ["GAGATGACCTGTAGCTGCTT (sugars e5 d10 e5, PS)", 34],
  ["CAGAAGGCACCCAGGCCCAT (sugars e5 d10 e5, PS)", 33],
  ["ATGGAGCTCAGAGACTCAGC (sugars e5 d10 e5, PS)", 78],
  ["CAGCCTGGACAAGTCCTGCC (sugars e3 d14 e3, PS)", 72]
]}

* * *

Biological target: KRAS
Conditions: ASO, A431, 2 µM
After the bases stand the sugars from the 5' end (letter, count) and the backbone: PS all phosphorothioate, else s phosphorothioate and o phosphodiester by linkage. Methylation of C is not given here. e = 2'-O-(2-methoxyethyl) (MOE); k = constrained ethyl (cEt); d = 2'-deoxy (DNA)

{"columns": ["Sequence Input", "target mRNA inhibition / %"],
 "data": [
  ["AGATTGTGCTGAGCTT (sugars kdddddddddkekeke, PS)", 0],
  ["TAGTGATTAGGTCAAA (sugars k3 d10 k3, PS)", 21],
  ["ACCATTCAAAGTTCAC (sugars kkddddddddkekekk, PS)", 7],
  ["TTGATTTGTCAGCAGG (sugars kkkdddddddddkeke, PS)", 40],
  ["TCTCTATGAAAGCTCA (sugars k3 d10 k3, PS)", 50],
  ["AAAGCTATTAGGAGTC (sugars k3 d10 k3, PS)", 65],
  ["GTAGGGCATTTCTGAT (sugars k3 d10 k3, PS)", 14],
  ["GTCCAGTGATACTTTC (sugars kkdddddddddkekek, PS)", 43],
  ["TATTAGGAGTCTTTAT (sugars k3 d10 k3, PS)", 13],
  ["ATAATAGTTTCCATTG (sugars k3 d10 k3, PS)", 8],
  ["CATTCAAAGTTCACAT (sugars kkddddddddkekekk, PS)", 96],
  ["TGATTTGTCAGCAGGA (sugars kddddddddddkekek, PS)", 47],
  ["TGATTTGTCAGCAGGA (sugars k3 d9 k3 e1, PS)", 63],
  ["TTGATTTGTCAGCAGG (sugars kdddddddddkekeke, PS)", 22],
  ["TAGGGCATTTCTGATG (sugars k3 d10 k3, PS)", 20],
  ["TCATTACTTTTTGACA (sugars k3 d10 k3, PS)", 4],
  ["CTTGATTTGTCAGCAG (sugars kkkdddddddddkeke, PS)", 46],
  ["CATTCAAAGTTCACAT (sugars kdddddddddkekeke, PS)", 24],
  ["TAGTGATTAGGTCAAA (sugars kkdddddddddkekek, PS)", 51],
  ["GTGAATATCTTCAAAT (sugars k3 d10 k3, PS)", 0],
  ["GGTTAGGGGAATTACA (sugars k3 d10 k3, PS)", 26],
  ["AGTGTGACTCAGTTAA (sugars kkddddddddkekekk, PS)", 47],
  ["CCATTTATGTGACTAG (sugars kkddddddddddkeke, PS)", 46],
  ["ATAATGGTGAATATCT (sugars k3 d10 k3, PS)", 41],
  ["TGGTGTAACATAGGTT (sugars k3 d10 k3, PS)", 58],
  ["TAAAAAAAAAATTAAT (sugars k3 d10 k3, PS)", 1],
  ["GTAATTAATCCATTTA (sugars k3 d10 k3, PS)", 15],
  ["ATTGTGCTGAGCTTGA (sugars k3 d10 k3, PS)", 51],
  ["CATTGTTTAAAAAAAA (sugars k3 d10 k3, PS)", 0],
  ["ATCTTATGGTTAGGGG (sugars k3 d10 k3, PS)", 20],
  ["TCCATTTATGTGACTA (sugars k3 d9 k3 e1, PS)", 23],
  ["TACTAGTATGCCTTAA (sugars k3 d10 k3, PS)", 16],
  ["TTTCTGATGTGACTCA (sugars k3 d10 k3, PS)", 57],
  ["ACCAGTGTTAAGAGAA (sugars kkkddddddddkdkdk, PS)", 50],
  ["ACTTCATTGTTTAAAA (sugars k3 d10 k3, PS)", 0],
  ["ATGACTAATAGCAGTG (sugars k3 d10 k3, PS)", 49],
  ["ATGGTGTAACATAGGT (sugars k3 d9 k3 e1, PS)", 47],
  ["TTCTGTCTATTCATAC (sugars k3 d10 k3, PS)", 10],
  ["AGGTAAAAGCTAACAG (sugars k3 d10 k3, PS)", 41],
  ["CTTGATTTGTCAGCAG (sugars kddddddddddkekek, PS)", 45],
  ["TATAATGGTGAATATC (sugars k3 d10 k3, PS)", 7],
  ["GTGTTTATGCAATGTT (sugars kkddddddddddkeke, PS)", 73],
  ["AATTAATCCATTTATG (sugars k3 d10 k3, PS)", 16],
  ["AGTGATTAGGTCAAAT (sugars kddddddddddkekek, PS)", 21],
  ["TTACTTTTTGACAAAT (sugars k3 d10 k3, PS)", 0],
  ["CAGTGTGACTCAGTTA (sugars k3 d10 k3, PS)", 53]
]}

* * *

# target mRNA inhibition listing for each entry below
Molecular target: DGAT2
Conditions: ASO, HepG2, 20 µM
After the bases stand the sugars from the 5' end (letter, count) and the backbone: PS all phosphorothioate, else s phosphorothioate and o phosphodiester by linkage. Methylation of C is not given here. e = 2'-O-(2-methoxyethyl) (MOE); d = 2'-deoxy (DNA)

{"columns": ["Sequence Input", "target mRNA inhibition [%]"],
 "data": [
  ["GGACCCACTGGAGCACTGAG (sugars e5 d10 e5, PS)", 73],
  ["TGTGTGTCTTCACCAGCTGG (sugars e5 d10 e5, PS)", 94],
  ["TGGTCAGCAGGTTGTGTGTC (sugars e5 d10 e5, PS)", 83],
  ["GCTTCACCAGGGCCTCCATG (sugars e5 d10 e5, PS)", 80]
]}

* * *

Target: KRAS
Conditions: ASO, A431, 2 µM
After the bases stand the sugars from the 5' end (letter, count) and the backbone: PS all phosphorothioate, else s phosphorothioate and o phosphodiester by linkage. Methylation of C is not given here. e = 2'-O-(2-methoxyethyl) (MOE); k = constrained ethyl (cEt); d = 2'-deoxy (DNA)
Use target mRNA inhibition to assign classes; range list: lowest: < 30%; middle: ≥ 30% and < 40%; highest: ≥ 40%

{"columns": ["Sequence Input", "Class Name"],
 "data": [
  ["TTAGTGATTAGGTCAA (sugars kkddddddddddkeke, PS)", "lowest"],
  ["ATGTAAATATAGCCCC (sugars k3 d10 k3, PS)", "lowest"],
  ["TCAACTGCATGCACCA (sugars k3 d10 k3, PS)", "highest"],
  ["AATCCATTTATGTGAC (sugars k3 d10 k3, PS)", "lowest"],
  ["TGATTTGTCAGCAGGA (sugars kkdddddddddkekek, PS)", "highest"],
  ["ATGGTTAGGGGAATTA (sugars k3 d10 k3, PS)", "middle"],
  ["TGATTTGTCAGCAGGA (sugars k3 d10 k3, PS)", "highest"],
  ["ATCCAGTATTAACACA (sugars k3 d10 k3, PS)", "lowest"],
  ["TGTTGAGCTATCCAAA (sugars k3 d10 k3, PS)", "middle"]
]}

* * *

Target: KRAS
Details: ASO, A431, 2 µM
After the bases stand the sugars from the 5' end (letter, count) and the backbone: PS all phosphorothioate, else s phosphorothioate and o phosphodiester by linkage. Methylation of C is not given here. e = 2'-O-(2-methoxyethyl) (MOE); k = constrained ethyl (cEt); d = 2'-deoxy (DNA)
Quantity Kind: target mRNA inhibition (%)

{"columns": ["Sequence Input", "Unit Of Measurement", "Numeric Value"],
 "data": [
  ["GCTGTGAAACTCTCTA (sugars kkddddddddkekekk, PS)", "%", 16],
  ["AAGCTATTAGGAGTCT (sugars k3 d10 k3, PS)", "%", 65],
  ["CAGTGTTAAGAGAACT (sugars kkddddddddkekekk, PS)", "%", 35],
  ["ACCATTCAAAGTTCAC (sugars kdddddddddkekeke, PS)", "%", 15],
  ["GTCCAGTGATACTTTC (sugars kkkddddddddkekek, PS)", "%", 21],
  ["CATTTATGTGACTAGA (sugars kddddddddddkekek, PS)", "%", 24],
  ["ACCATTCAAAGTTCAC (sugars k3 d10 k3, PS)", "%", 34],
  ["AAAAAAAAAATTAATG (sugars k3 d10 k3, PS)", "%", 6],
  ["AAACGAGAATGGATAT (sugars k3 d10 k3, PS)", "%", 12],
  ["AAAAAAAATTAATGTC (sugars k3 d10 k3, PS)", "%", 14],
  ["CTTGATTTGTCAGCAG (sugars kdddddddddkekeke, PS)", "%", 44]
]}
